# experimental-system: FMDV 2C(34-318) (Foot-and-mouth disease virus type O1K, UniProt P03305 1141-1425)
# Sequence (P03305 1141-1425): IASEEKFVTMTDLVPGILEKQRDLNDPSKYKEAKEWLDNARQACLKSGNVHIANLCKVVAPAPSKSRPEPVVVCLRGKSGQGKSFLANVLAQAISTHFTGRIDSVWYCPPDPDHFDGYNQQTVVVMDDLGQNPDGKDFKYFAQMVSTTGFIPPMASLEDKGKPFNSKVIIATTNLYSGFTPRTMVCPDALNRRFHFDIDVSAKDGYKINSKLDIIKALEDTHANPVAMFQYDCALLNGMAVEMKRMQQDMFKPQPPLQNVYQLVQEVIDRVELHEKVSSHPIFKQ
# procedure-summary: EMSA
readout-label: Kd

Look up Kd for this binder: AAUUCUAAGGGCCAGCGAGA (ssRNA) [20-base ssRNA]
~5 µM

These entries and their values trace back to paper PMC2915670.
